Biological target: T1, human B7-H4 on cells (human, UniProt Q7Z7D3 25-282)
T1 sequence: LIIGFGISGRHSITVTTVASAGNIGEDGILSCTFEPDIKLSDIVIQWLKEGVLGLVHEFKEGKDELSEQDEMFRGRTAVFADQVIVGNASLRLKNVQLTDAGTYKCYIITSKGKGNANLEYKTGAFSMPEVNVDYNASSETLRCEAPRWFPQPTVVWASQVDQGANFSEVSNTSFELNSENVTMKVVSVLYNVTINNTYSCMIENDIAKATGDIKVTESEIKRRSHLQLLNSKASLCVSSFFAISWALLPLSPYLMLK
Experiment: cell-based or functional assay
# fulfilled = ZAP % Viability, OVCAR4 below 50% (exclusive); not fulfilled = ZAP % Viability, OVCAR4 at/above 50%

// known answers, use as guide
Binder: ZY0EOB-F05 human IgG1-TM (antibody, V domains shown) VH: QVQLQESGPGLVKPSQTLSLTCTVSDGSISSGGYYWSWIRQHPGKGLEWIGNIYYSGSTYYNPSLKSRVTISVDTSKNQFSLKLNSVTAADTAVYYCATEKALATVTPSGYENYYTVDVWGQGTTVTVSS VL: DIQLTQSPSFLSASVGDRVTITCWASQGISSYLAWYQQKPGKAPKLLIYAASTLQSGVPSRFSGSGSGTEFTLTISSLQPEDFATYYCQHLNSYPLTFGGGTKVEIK
Label Value: not fulfilled
--
Binder: ZY0EP0-C07 human IgG1-TM (antibody, V domains shown, also called ZY0EPO-C07) VH: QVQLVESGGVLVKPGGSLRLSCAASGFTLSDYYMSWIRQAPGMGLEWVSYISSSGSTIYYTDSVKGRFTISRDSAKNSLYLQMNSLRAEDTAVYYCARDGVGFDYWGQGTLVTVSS VL: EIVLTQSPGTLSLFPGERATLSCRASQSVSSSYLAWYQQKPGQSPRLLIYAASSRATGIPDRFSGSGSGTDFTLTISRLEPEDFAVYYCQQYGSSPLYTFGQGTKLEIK
Label Value: not fulfilled
--
Binder: ZY0EPQ-E02 human IgG1-TM (antibody, V domains shown) VH: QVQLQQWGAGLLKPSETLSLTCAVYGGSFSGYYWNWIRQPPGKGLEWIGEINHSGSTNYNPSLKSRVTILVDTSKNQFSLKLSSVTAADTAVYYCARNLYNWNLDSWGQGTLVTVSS VL: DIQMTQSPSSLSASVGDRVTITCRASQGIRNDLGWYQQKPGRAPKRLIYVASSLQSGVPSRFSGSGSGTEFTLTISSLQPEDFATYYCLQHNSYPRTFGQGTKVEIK
Label Value: fulfilled
--
Binder: ZY0EO5-E07 human IgG1-TM (antibody, V domains shown, also called ZY0E05-E07; E05-E07) VH: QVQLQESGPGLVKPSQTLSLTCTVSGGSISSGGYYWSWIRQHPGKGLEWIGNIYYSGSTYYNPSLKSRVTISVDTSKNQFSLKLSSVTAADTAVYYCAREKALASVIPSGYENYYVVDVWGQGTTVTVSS VL: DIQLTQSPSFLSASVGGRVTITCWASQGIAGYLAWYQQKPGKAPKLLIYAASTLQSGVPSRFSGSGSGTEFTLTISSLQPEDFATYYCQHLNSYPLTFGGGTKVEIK
Label Value: not fulfilled

Please find the next binder below.
INPUT: Does ZY0EQD-E02 human IgG1-TM (antibody, V domains shown) VH: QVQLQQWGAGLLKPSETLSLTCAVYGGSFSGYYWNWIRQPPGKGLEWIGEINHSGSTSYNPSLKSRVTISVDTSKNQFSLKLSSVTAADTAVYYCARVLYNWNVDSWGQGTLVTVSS VL: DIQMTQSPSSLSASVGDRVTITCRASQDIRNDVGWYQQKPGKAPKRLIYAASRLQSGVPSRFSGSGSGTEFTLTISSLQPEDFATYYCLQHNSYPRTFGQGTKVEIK have ZAP % Viability, OVCAR4 strictly under 50%?
OUTPUT: fulfilled
